Known IC50 of enzyme inhibition of a selection of binders
# system_name: Recombinant human hepsin (4776-SE-010, R&D Systems), activated (human) (UniProt P05981)
*: point of attachment. kt = C-terminal ketothiazole, c1csc(*)n1
Express your answer as a number followed by its unit.

{"binder": "Ac-WKLR-kt (SMILES CC(=O)N[C@@H](Cc1c[nH]c2ccccc12)C(=O)N[C@@H](CCCCN)C(=O)N[C@@H](CC(C)C)C(=O)N[C@@H](CCCNC(=N)N)C(=O)c1nccs1) [Ac-WKLR(SEQ ID NO: 12)-kt]", "IC50 of enzyme inhibition": "4 nM"}

# ---- query binder ----
Reported IC50 of enzyme inhibition of Ac-SHLR-kt (SMILES CC(=O)N[C@@H](CO)C(=O)N[C@@H](Cc1c[nH]cn1)C(=O)N[C@@H](CC(C)C)C(=O)N[C@@H](CCCNC(=N)N)C(=O)c1nccs1) [Ac-SHLR(SEQ ID NO: 11)-kt] : 5 nM
